- system.under.test: Stromelysin-1 (Homo sapiens)
- measurement.notes: Inhibition of human recombinant MMP-3 catalytic domain at 50 uM by fluorescence spectrophotometric analysis relative to control
For each record, write down the corresponding inhibition.
Give bare numbers, in %.

Please give inhibition for each item listed below.
1. CCCNC(=O)Nc1ccc(Oc2ccc(S(=O)(=O)CC3CS3)cc2)cc1 (stereo not given)
2. CCCNC(=O)Oc1ccc(Oc2ccc(S(=O)(=O)CC3CS3)cc2)cc1 (stereo not given)

Solution:
1. 18
2. 38

Please give inhibition for each item listed below.
1. CCOC(=O)Oc1ccc(Oc2ccc(S(=O)(=O)CC3CS3)cc2)cc1 (stereo not given)
2. CNC(=O)Nc1ccc(Oc2ccc(S(=O)(=O)CC3CS3)cc2)cc1 (stereo not given)
3. CCOC(=O)Nc1ccc(Oc2ccc(S(=O)(=O)CC3CS3)cc2)cc1 (stereo not given)

Solution:
39
21
37

---

- measurement.notes: Primary phase half life in C57Bl/6J mouse plasma at 25 mg/kg, sc
- Assay type: ADME, organism-based
- Parameters: dose 25 mg/kg, route subcutaneous
- condition.notes: read-out: alphat1/2
property.name: half-life (min)
Numbers only, in min.

Exercise: So what's the measured half-life for this one? CCNC(=O)Nc1ccc(Oc2ccc(S(=O)(=O)CC3CS3)cc2)cc1 (stereo unspecified)
Solution: 8.38

---

- System: Plasma
- measurement.notes: Plasma concentration in C57Bl/6J mouse assessed as 4-(4-(thiiran-2-ylmethylsulfonyl)phenoxy)phenol at 25 mg/kg, sc measured at 10 mins by reversed phase UPLC/ESI-MRM analysis
- Type: ADME, organism-based
- Design: dose 25 mg/kg, route subcutaneous
- condition.notes: in vivo
property.name: concentration (nM)
Numbers only, in nM.

Exercise: So what's the measured concentration for this one? CCNC(=O)Oc1ccc(Oc2ccc(S(=O)(=O)CC3CS3)cc2)cc1 (stereo unspecified)
Solution: 1240

---

- system.under.test: Matrix metalloproteinase-9 (Homo sapiens)
- measurement.notes: Inhibition of human recombinant MMP-9 catalytic domain using MOCAcPLGLA2pr(Dnp)AR-NH2 as substrate at 50 uM by fluorescence spectrophotometric analysis relative to control
property.name: inhibition (%)
One number for each entry, in %.

Field: example entries. Status: answers known.
>>> assay_result("CC(C)NC(=O)Nc1ccc(Oc2ccc(S(=O)(=O)CC3CS3)cc2)cc1 (centres undefined)")
26
>>> assay_result("CCNC(=O)Nc1ccc(Oc2ccc(S(=O)(=O)CC3CS3)cc2)cc1 (centres undefined)")
28
>>> assay_result("CC(C)NC(=O)Oc1ccc(Oc2ccc(S(=O)(=O)CC3CS3)cc2)cc1 (centres undefined)")
22

Exercise: So what's the measured inhibition for this one? CCCNC(=O)Nc1ccc(Oc2ccc(S(=O)(=O)CC3CS3)cc2)cc1 (centres undefined)
Solution: 7

---

- system.under.test: Matrix metalloproteinase-14 (Homo sapiens, UniProt P50281)
- measurement.notes: Inhibition of human recombinant MMP-14 catalytic domain using MOCAcPLGLA2pr(Dnp)AR-NH2 as substrate by fluorescence spectrophotometric analysis
property.name: pKi
One number for each entry, as −log10 of the molar value.

Field: example entries. Status: answers known.
>>> assay_result("CNC(=O)Oc1ccc(Oc2ccc(S(=O)(=O)CC3CS3)cc2)cc1 (configuration not stated)")
4.92
>>> assay_result("CCCOC(=O)Nc1ccc(Oc2ccc(S(=O)(=O)CC3CS3)cc2)cc1 (configuration not stated)")
5.68
>>> assay_result("CCCOC(=O)Oc1ccc(Oc2ccc(S(=O)(=O)CC3CS3)cc2)cc1 (configuration not stated)")
5.55
>>> assay_result("CCOC(=O)Oc1ccc(Oc2ccc(S(=O)(=O)CC3CS3)cc2)cc1 (configuration not stated)")
5.57
>>> assay_result("CCOC(=O)Nc1ccc(Oc2ccc(S(=O)(=O)CC3CS3)cc2)cc1 (configuration not stated)")
5.72
>>> assay_result("CNC(=O)Nc1ccc(Oc2ccc(S(=O)(=O)CC3CS3)cc2)cc1 (configuration not stated)")
4.72
>>> assay_result("CCCNC(=O)Oc1ccc(Oc2ccc(S(=O)(=O)CC3CS3)cc2)cc1 (configuration not stated)")
4.57
>>> assay_result("CC(C)OC(=O)Nc1ccc(Oc2ccc(S(=O)(=O)CC3CS3)cc2)cc1 (configuration not stated)")
5.60
>>> assay_result("COC(=O)Nc1ccc(Oc2ccc(S(=O)(=O)CC3CS3)cc2)cc1 (configuration not stated)")
5.59
>>> assay_result("COC(=O)Oc1ccc(Oc2ccc(S(=O)(=O)CC3CS3)cc2)cc1 (configuration not stated)")
5.62

Please give pKi for each item listed below.
1. CC(C)OC(=O)Oc1ccc(Oc2ccc(S(=O)(=O)CC3CS3)cc2)cc1 (configuration not stated)
2. CCNC(=O)Oc1ccc(Oc2ccc(S(=O)(=O)CC3CS3)cc2)cc1 (configuration not stated)

Solution:
1. 5.52
2. 4.77

---

For each record, write down the corresponding inhibition.
- system.under.test: Matrix metalloproteinase-14 (Homo sapiens, UniProt P50281)
- measurement.notes: Inhibition of human recombinant MMP-14 catalytic domain using MOCAcPLGLA2pr(Dnp)AR-NH2 as substrate at 50 uM by fluorescence spectrophotometric analysis relative to control

Field: example entries. Status: answers known.
>>> assay_result("CCNC(=O)Nc1ccc(Oc2ccc(S(=O)(=O)CC3CS3)cc2)cc1 (centres undefined)")
"17%"
>>> assay_result("CC(C)NC(=O)Nc1ccc(Oc2ccc(S(=O)(=O)CC3CS3)cc2)cc1 (centres undefined)")
"37%"
>>> assay_result("CC(C)NC(=O)Oc1ccc(Oc2ccc(S(=O)(=O)CC3CS3)cc2)cc1 (centres undefined)")
"30%"

Exercise: So what's the measured inhibition for this one? CCCNC(=O)Nc1ccc(Oc2ccc(S(=O)(=O)CC3CS3)cc2)cc1 (centres undefined)
Solution: 8%

---

- System: Liver
- measurement.notes: Half life in rat liver S9 fraction at 10 uM by reversed-phase UPLC/ESI-MRM analysis
- Assay type: ADME, subcellular
- condition.notes: s9, 10 µM
property.name: t1/2 (min)
Numbers only, in min.

Please give t1/2 for each item listed below.
1. COC(=O)Nc1ccc(Oc2ccc(S(=O)(=O)CC3CS3)cc2)cc1 (stereo not given)
2. CCOC(=O)Nc1ccc(Oc2ccc(S(=O)(=O)CC3CS3)cc2)cc1 (stereo not given)
3. O=S(=O)(CC1CS1)c1ccc(Oc2ccc(O)cc2)cc1 (stereo not given)
4. CCNC(=O)Oc1ccc(Oc2ccc(S(=O)(=O)CC3CS3)cc2)cc1 (stereo not given)

Solution:
1. 17.6
2. 24.8
3. 23.5
4. 22.8

Exercise: So what's the measured t1/2 for this one? CCNC(=O)Nc1ccc(Oc2ccc(S(=O)(=O)CC3CS3)cc2)cc1 (stereo not given)
Solution: 40.7

---

For each record, write down the corresponding log10 Ki.
- system.under.test: Matrix metalloproteinase-9 (Homo sapiens, UniProt P14780)
- Sequence (P14780 whole entry, the tested form may be a part): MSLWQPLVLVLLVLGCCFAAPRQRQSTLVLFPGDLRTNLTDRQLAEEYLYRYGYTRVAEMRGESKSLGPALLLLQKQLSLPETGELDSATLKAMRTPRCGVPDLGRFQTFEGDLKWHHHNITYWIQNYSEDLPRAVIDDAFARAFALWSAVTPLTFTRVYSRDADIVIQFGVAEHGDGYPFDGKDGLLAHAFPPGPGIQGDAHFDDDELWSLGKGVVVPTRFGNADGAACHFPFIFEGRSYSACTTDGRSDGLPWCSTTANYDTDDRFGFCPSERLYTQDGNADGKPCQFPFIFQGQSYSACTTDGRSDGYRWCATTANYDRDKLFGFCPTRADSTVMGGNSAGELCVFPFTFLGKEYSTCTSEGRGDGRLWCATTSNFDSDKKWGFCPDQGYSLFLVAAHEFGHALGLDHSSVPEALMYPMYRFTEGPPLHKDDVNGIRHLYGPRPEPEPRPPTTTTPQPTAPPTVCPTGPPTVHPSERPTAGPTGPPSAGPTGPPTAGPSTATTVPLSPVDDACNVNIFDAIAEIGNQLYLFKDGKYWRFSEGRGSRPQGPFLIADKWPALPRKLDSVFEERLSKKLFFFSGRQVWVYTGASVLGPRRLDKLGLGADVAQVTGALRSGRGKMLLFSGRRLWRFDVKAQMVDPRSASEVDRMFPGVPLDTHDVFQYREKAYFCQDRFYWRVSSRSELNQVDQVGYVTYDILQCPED
- measurement.notes: Inhibition of human recombinant MMP-9 catalytic domain using MOCAcPLGLA2pr(Dnp)AR-NH2 as substrate by fluorescence spectrophotometric analysis
Remember, log10 of Ki, in nM.

Field: example entries. Status: answers known.
>>> assay_result("CNC(=O)Oc1ccc(Oc2ccc(S(=O)(=O)CC3CS3)cc2)cc1 (centres undefined)")
4.00
>>> assay_result("CCCOC(=O)Oc1ccc(Oc2ccc(S(=O)(=O)CC3CS3)cc2)cc1 (centres undefined)")
3.00
>>> assay_result("CCNC(=O)Oc1ccc(Oc2ccc(S(=O)(=O)CC3CS3)cc2)cc1 (centres undefined)")
4.08
>>> assay_result("COC(=O)Oc1ccc(Oc2ccc(S(=O)(=O)CC3CS3)cc2)cc1 (centres undefined)")
2.36
>>> assay_result("CC(C)OC(=O)Oc1ccc(Oc2ccc(S(=O)(=O)CC3CS3)cc2)cc1 (centres undefined)")
3.11
>>> assay_result("CNC(=O)Nc1ccc(Oc2ccc(S(=O)(=O)CC3CS3)cc2)cc1 (centres undefined)")
4.00
>>> assay_result("CCCNC(=O)Oc1ccc(Oc2ccc(S(=O)(=O)CC3CS3)cc2)cc1 (centres undefined)")
4.72
>>> assay_result("CC(C)OC(=O)Nc1ccc(Oc2ccc(S(=O)(=O)CC3CS3)cc2)cc1 (centres undefined)")
3.43

Could you now consider this next molecule?
Exercise: So what's the measured log10 Ki for this one? CCCOC(=O)Nc1ccc(Oc2ccc(S(=O)(=O)CC3CS3)cc2)cc1 (centres undefined)
Solution: 3.04

---

- system.under.test: Stromelysin-1 (Homo sapiens)
- measurement.notes: Inhibition of human recombinant MMP-3 catalytic domain at 50 uM by fluorescence spectrophotometric analysis relative to control
The source made the active and inactive calls. No cut-off for these calls is given here.
property.name: inhibition

>>> assay_result("CNC(=O)Oc1ccc(Oc2ccc(S(=O)(=O)CC3CS3)cc2)cc1 (stereo not given)")
"30%"
>>> assay_result("CCNC(=O)Oc1ccc(Oc2ccc(S(=O)(=O)CC3CS3)cc2)cc1 (stereo not given)")
"37%"
>>> assay_result("CC(C)NC(=O)Nc1ccc(Oc2ccc(S(=O)(=O)CC3CS3)cc2)cc1 (stereo not given)")
"4%"
>>> assay_result("CCCOC(=O)Oc1ccc(Oc2ccc(S(=O)(=O)CC3CS3)cc2)cc1 (stereo not given)")
"29%"
>>> assay_result("CCNC(=O)Nc1ccc(Oc2ccc(S(=O)(=O)CC3CS3)cc2)cc1 (stereo not given)")
"inactive"

Please give inhibition for each item listed below.
1. COC(=O)Nc1ccc(Oc2ccc(S(=O)(=O)CC3CS3)cc2)cc1 (stereo not given)
2. CC(C)OC(=O)Nc1ccc(Oc2ccc(S(=O)(=O)CC3CS3)cc2)cc1 (stereo not given)
3. CCCOC(=O)Nc1ccc(Oc2ccc(S(=O)(=O)CC3CS3)cc2)cc1 (stereo not given)
4. CC(C)NC(=O)Oc1ccc(Oc2ccc(S(=O)(=O)CC3CS3)cc2)cc1 (stereo not given)
5. CC(C)OC(=O)Oc1ccc(Oc2ccc(S(=O)(=O)CC3CS3)cc2)cc1 (stereo not given)

Solution:
38%
inactive
27%
3%
9%
